Values compiled from the Human Domainome abundance scans (Beltran et al. 2025).

B1: Membrane-associated guanylate kinase, WW and PDZ domain-containing protein 2, residues 601 to 682; numbered along this chain, Q86UL8 (parent)
chain: AELMTLTIVKGAQGFGFTIADSPTGQRVKQILDIQGCPGLCEGDLIVEINQQNVQNLSHTEVVDILKDCPIGSETSLIIHRG

- Variants of: B1
- measurement.notes: abundance fitness (aPCA) (normalised: wild type 0, dead -1); higher = more abundant; growth selection in yeast, the domain comes from the species named
- recorded.conditions: Homo sapiens
Record form. Attribute: abundance fitness. Fill in for each entry.
Just the number, please, no unit after it.

Request: Name the recorded abundance fitness for L77P .
Response: -0.86

Request: Name the recorded abundance fitness for I46L .
Response: 0.236

Request: Name the recorded abundance fitness for L57N .
Response: 0.076

Request: Name the recorded abundance fitness for Q30N .
Response: -0.302

Request: Name the recorded abundance fitness for Q55N .
Response: 0.039

Request: Name the recorded abundance fitness for H80V .
Response: -0.231

Request: Name the recorded abundance fitness for C41I .
Response: 0.057

Request: Name the recorded abundance fitness for Q30L .
Response: 0.066

Request: Name the recorded abundance fitness for Q52K .
Response: 0.049

Request: Name the recorded abundance fitness for C37R .
Response: -0.163

Request: Name the recorded abundance fitness for S22F .
Response: -0.105
